This collection of values is drawn from patent US20210230101A1.

assay summary: Pharmacokinetic (PK) studies
condition details: mouse, in vivo, iv
quantity name: half-life (h)
Give the value, in units of h, as a plain number.

*Q* I have this compound here, Cc1cc(C(C#N)c2ccc(Cl)cc2)c(Cl)cc1NC(=O)c1cc(I)cc(I)c1O (stereo not shown) , and I need its recorded half-life.
*A* 21

====

Catalogue of IC50 values
system under test: His6-tagged DENV2 sE2 (Dengue virus type 2)
Give the value, in units of nM, as a plain number.

Use the examples below as a reference point.
molecule	IC50, nM
Cc1cc(C(C#N)c2ccc(Cl)cc2)c(Cl)cc1NC(=O)c1cc(I)cc(I)c1O (stereo not shown) [drawing 87]	800
O=C(Nc1ccc(Oc2ccc(Cl)cc2)c(Cl)c1)c1cc(I)cc(I)c1O	800
Cc1cc(C(C#N)c2ccc(Cl)cc2)c(Cl)cc1NC(=O)c1ccccc1O (stereo not shown)	2000

Could you now look at the following molecule, please?
*Q* API: value(readout= IC50, system= His6-tagged DENV2 sE2 (Dengue virus type 2), query= O=C(Nc1ccc(Oc2ccc(Cl)cc2)c(Cl)c1)c1cc(F)cc(F)c1O [ZNL-01-132] )
*A* 4000
